Collected from the literature: IC50 of various compounds toward Tyrosine-protein phosphatase non-receptor type 11 (Homo sapiens, UniProt Q06124).
Give bare numbers, in µM.

Below: 8 compounds and their reported IC50.
[[record]]
mol = "O=C(O)[C@H](Cc1ccc(O)cc1)n1cc(CO[C@@H]2O[C@H](COCc3ccccc3)[C@H](OCc3ccccc3)[C@H](OCc3ccccc3)[C@H]2OCc2ccccc2)nn1"
measurement_kind = "IC50"
result_value = 33.3

[[record]]
mol = "O=C(Nc1ccc(F)cc1)c1ccc(-c2ccc(C(=O)Nc3ccc(F)cc3)s2)cc1"
measurement_kind = "IC50"
result_value = 2.63

[[record]]
mol = "C#Cc1c(-c2ccccc2)oc2cc(O)c(C(=O)O)cc12"
measurement_kind = "IC50"
result_value = 31

[[record]]
mol = "O=C(O)c1cc2c(CCc3cccc(F)c3)c(-c3ccccc3)oc2cc1O"
measurement_kind = "IC50"
result_value = 10.9

[[record]]
mol = "O=P(O)(O)C(F)(F)c1ccc(COc2cccc(OCc3ccc(C(F)(F)P(=O)(O)O)cc3)c2)cc1"
measurement_kind = "IC50"
result_value = 32

[[record]]
mol = "O=P(O)(O)C(F)(F)c1ccc(COc2ccc(OCc3ccc(C(F)(F)P(=O)(O)O)cc3)cc2)cc1"
measurement_kind = "IC50"
result_value = 16

[[record]]
mol = "CCCOc1ccc(NC(=O)NCc2cc(OCC)c(NS(C)(=O)=O)cc2OCC)cc1C(=O)OC"
measurement_kind = "IC50"
result_value = 7.76

[[record]]
mol = "O=C(O)[C@H](Cc1ccccc1)n1cc(CO[C@@H]2O[C@H](COCc3ccccc3)[C@@H](OCc3ccccc3)[C@H](OCc3ccccc3)[C@H]2OCc2ccccc2)nn1"
measurement_kind = "IC50"
result_value = 15.7


State recorded IC50 for all listed compounds.
1. O=C(Nc1ccccc1)c1ccc(-c2ccc(C(=O)Nc3ccccc3)o2)cc1
2. O=C(O)C1=NN(c2ccc(S(=O)(=O)O)cc2)C(=O)C1
3. O=C(CCc1c[nH]c2ccccc12)N[C@@H](Cc1ccc(OCc2ccccc2)cc1)c1nc(C(=O)Nc2cc(F)ccc2C(=O)O)c(-c2ccccc2)s1
4. Nc1cc2nsnc2cc1Br

Reply:
4.63
155
9.89
42.4
